// data source = ChEMBL document CHEMBL5042485

target: CDK12/Cyclin K (Homo sapiens, UniProt Q9NYV4); test: Inhibition of CDK12/cyclin K (unknown origin) using 5-FAM-labeled peptide as substrate in presence of ATP by mobility shift assay
Sequence (O75909 whole entry): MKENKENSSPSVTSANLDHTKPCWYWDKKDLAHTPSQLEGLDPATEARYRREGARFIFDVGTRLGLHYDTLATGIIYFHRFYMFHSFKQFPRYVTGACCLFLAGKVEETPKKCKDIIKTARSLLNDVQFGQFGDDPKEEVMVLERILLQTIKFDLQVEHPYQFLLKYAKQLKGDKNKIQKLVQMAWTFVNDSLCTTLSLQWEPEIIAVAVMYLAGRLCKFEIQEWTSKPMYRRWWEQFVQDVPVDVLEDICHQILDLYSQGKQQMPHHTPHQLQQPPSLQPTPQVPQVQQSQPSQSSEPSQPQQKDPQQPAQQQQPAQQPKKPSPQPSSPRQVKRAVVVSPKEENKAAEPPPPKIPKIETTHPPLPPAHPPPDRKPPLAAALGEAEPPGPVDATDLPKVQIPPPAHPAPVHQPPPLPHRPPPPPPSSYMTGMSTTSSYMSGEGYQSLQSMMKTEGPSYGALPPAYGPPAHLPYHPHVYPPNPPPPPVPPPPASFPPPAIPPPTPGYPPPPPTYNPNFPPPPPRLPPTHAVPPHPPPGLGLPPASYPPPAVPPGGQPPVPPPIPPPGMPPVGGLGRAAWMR
Sequence (Q9NYV4 whole entry): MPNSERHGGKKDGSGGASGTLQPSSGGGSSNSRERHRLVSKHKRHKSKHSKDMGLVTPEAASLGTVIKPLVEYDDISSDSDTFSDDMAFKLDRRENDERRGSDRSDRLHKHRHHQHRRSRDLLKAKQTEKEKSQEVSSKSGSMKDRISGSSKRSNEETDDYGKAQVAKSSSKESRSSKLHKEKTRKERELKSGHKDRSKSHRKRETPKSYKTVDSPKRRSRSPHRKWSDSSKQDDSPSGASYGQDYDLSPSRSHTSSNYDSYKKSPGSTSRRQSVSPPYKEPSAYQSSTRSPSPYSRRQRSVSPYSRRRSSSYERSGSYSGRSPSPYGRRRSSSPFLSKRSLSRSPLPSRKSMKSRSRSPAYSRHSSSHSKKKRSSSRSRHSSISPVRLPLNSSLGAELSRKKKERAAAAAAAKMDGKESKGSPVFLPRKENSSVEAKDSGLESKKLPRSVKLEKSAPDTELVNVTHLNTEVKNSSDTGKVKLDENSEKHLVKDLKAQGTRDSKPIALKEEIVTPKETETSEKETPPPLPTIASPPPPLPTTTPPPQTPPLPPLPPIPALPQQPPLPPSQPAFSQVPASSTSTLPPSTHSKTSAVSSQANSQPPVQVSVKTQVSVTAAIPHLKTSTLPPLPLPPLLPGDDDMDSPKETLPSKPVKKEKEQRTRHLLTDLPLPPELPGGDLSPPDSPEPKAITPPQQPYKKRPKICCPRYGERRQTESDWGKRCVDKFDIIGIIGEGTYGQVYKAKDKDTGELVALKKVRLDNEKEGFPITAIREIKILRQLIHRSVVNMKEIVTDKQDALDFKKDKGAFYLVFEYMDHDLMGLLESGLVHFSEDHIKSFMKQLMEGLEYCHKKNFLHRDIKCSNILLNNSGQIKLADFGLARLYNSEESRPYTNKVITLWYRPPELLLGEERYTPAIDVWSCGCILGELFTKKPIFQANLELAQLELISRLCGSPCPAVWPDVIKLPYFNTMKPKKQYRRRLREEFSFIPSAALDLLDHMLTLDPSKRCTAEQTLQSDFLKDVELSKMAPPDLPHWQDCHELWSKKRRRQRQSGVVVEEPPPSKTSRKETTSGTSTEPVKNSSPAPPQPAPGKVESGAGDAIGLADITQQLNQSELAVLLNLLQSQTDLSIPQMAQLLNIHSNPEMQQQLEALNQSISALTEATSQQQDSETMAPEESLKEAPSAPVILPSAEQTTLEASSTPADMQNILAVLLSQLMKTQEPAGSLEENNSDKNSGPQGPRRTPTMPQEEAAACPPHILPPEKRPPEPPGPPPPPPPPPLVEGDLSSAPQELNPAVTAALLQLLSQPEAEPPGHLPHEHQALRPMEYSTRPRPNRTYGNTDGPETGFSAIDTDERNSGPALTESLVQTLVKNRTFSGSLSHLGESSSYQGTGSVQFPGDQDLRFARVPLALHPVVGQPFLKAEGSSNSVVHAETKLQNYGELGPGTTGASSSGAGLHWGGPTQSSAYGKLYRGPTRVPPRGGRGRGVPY
MEASUREMENT NAME: IC50 (nM)

// solved cases for IC50 follow
{"COMPOUND STRUCTURE": "CS(=O)(=O)c1ccc2c(-c3nc(N[C@H]4CCCNC4)ncc3C(F)(F)F)c[nH]c2c1", "REPORTED": 69}
{"COMPOUND STRUCTURE": "Clc1cnc(N[C@H]2CCCNC2)nc1-c1c[nH]c2ccccc12", "REPORTED": 29}
{"COMPOUND STRUCTURE": "CCc1cnc(N[C@H]2CCCNC2)nc1-c1c[nH]c2ccccc12", "REPORTED": 135}
{"COMPOUND STRUCTURE": "CC1(C)CNC[C@@H](Nc2ncc(C(F)(F)F)c(-c3c[nH]c4c(P(C)(C)=O)c(C#N)ccc34)n2)C1", "REPORTED": 156}
{"COMPOUND STRUCTURE": "CC1(C)CNC[C@@H](Nc2ncc(C(F)(F)F)c(-c3c[nH]c4ccccc34)n2)C1", "REPORTED": 36}
{"COMPOUND STRUCTURE": "Cc1noc(C)c1-c1ccc2c(-c3nc(N[C@H]4CCCNC4)ncc3C(F)(F)F)c[nH]c2n1.Cl", "REPORTED": 75}

a: CCc1cnc(N[C@H]2CCCNC2)nc1-c1c[nH]c2c(S(C)(=O)=O)c(C#N)ccc12
b: CP(C)(=O)c1cccc2c(-c3nc(N[C@H]4CCCNC4)ncc3C(F)(F)F)c[nH]c12
c: N#Cc1ccc2c(-c3nc(N[C@H]4CCCNC4)ncc3C(F)(F)F)c[nH]c2c1
Query string: Falling order of IC50, please. Labels, ranked as asked.
Result string: a, b, c

====

assay: Unbound clearance in CD-1 mouse at 1 mg/kg, iv measured upto 24 hrs by LC-MS/MS analysis; format: ADME, organism-based; conditions: in vivo
MEASUREMENT NAME: CL free (mL/min/kg)

{"COMPOUND": "CS(=O)(=O)c1cccc2c(-c3nc(N[C@H]4CCCNC4)ncc3C(F)(F)F)c[nH]c12", "REPORTED": 309}
{"COMPOUND": "FC(F)(F)c1cnc(N[C@H]2CCCNC2)nc1-c1c[nH]c2ccccc12", "REPORTED": 568}
{"COMPOUND": "Clc1cnc(N[C@H]2CCCNC2)nc1-c1c[nH]c2ccccc12", "REPORTED": 457}
{"COMPOUND": "CCc1cnc(N[C@H]2CCCNC2)nc1-c1c[nH]c2c(S(C)(=O)=O)c(C#N)ccc12", "REPORTED": 394}
{"COMPOUND": "Cc1noc(C)c1-c1ccc2c(-c3nc(N[C@H]4CCCNC4)ncc3C(F)(F)F)c[nH]c2n1.Cl", "REPORTED": 712}
{"COMPOUND": "N#Cc1ccc2c(-c3nc(N[C@H]4CCCNC4)ncc3C(F)(F)F)c[nH]c2c1", "REPORTED": 656}

P: Cc1noc(C)c1-c1ccc2c(-c3nc(N[C@H]4CCCNC4)ncc3C(F)(F)F)c[nH]c2c1
Q: CC1(C)CC[C@H](Nc2ncc(C(F)(F)F)c(-c3c[nH]c4c(P(C)(C)=O)c(C#N)ccc34)n2)CN1 [SY-5609]
R: CP(C)(=O)c1cccc2c(-c3nc(N[C@H]4CCCNC4)ncc3C(F)(F)F)c[nH]c12
S: CC1(C)CNC[C@@H](Nc2ncc(C(F)(F)F)c(-c3c[nH]c4ccccc34)n2)C1
Query string: Exam item: list the entries in increasing order of CL free. Labels, ranked as asked.
Result string: R, Q, P, S
(R: 73 mL/min/kg, Q: 239 mL/min/kg, P: 514 mL/min/kg, S: 1477 mL/min/kg)

I: CC1(C)CNC[C@@H](Nc2ncc(C(F)(F)F)c(-c3c[nH]c4c(P(C)(C)=O)c(C#N)ccc34)n2)C1
II: CS(=O)(=O)c1c(C#N)ccc2c(-c3nc(N[C@H]4CCCNC4)ncc3C(F)(F)F)c[nH]c12
Query string: Hi there, can you help? I need to know whether I or II has lower measured CL free. Write down the label of the entry you select.
Result string: II
(II: 368 mL/min/kg, I: 597 mL/min/kg)

P: CCc1cnc(N[C@H]2CCCNC2)nc1-c1c[nH]c2ccccc12
Q: CS(=O)(=O)c1ccc2c(-c3nc(N[C@H]4CCCNC4)ncc3C(F)(F)F)c[nH]c2c1
Query string: Hi there, can you help? I need to know whether P or Q has lower measured CL free. Write down the label of the entry you select.
Result string: P

====

molecular target: Cyclin-dependent kinase 7/ cyclin H (Homo sapiens, UniProt P50613); test: Binding affinity to full length CDK7 (1 to 346 residues) /N-terminal TEV cleavable 6His tagged full length cyclinH (1 to 323 residues) (unknown origin) expressed in baculovirus infected Sf9 cells by Surface plasmon resonance assay
Sequence (P51946 whole entry, the tested form may be a part): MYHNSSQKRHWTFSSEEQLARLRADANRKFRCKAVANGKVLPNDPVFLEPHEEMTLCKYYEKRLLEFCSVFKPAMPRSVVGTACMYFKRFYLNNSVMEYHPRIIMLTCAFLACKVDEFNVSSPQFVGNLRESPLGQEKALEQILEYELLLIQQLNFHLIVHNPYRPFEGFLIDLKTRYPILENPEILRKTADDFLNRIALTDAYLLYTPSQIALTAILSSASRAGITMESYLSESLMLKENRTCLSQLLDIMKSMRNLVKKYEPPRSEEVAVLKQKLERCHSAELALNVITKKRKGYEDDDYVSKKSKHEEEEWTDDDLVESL
Sequence (P50613 whole entry, the tested form may be a part): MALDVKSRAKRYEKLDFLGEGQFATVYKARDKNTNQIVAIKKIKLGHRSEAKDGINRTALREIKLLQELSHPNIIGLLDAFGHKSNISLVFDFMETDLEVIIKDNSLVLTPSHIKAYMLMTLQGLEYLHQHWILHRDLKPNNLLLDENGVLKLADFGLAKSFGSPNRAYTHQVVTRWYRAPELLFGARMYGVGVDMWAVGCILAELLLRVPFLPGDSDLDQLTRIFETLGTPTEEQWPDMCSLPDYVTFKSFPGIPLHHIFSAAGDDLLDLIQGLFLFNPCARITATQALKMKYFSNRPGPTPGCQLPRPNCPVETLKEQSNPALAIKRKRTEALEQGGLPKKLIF
pKd: −log10 of the molar value.
MEASUREMENT NAME: pKd

{"COMPOUND STRUCTURE": "Cc1noc(C)c1-c1ccc2c(-c3nc(N[C@H]4CCCNC4)ncc3C(F)(F)F)c[nH]c2n1.Cl", "ASSAYED SYSTEM": "Cyclin-dependent kinase 7/ cyclin H (Homo sapiens, UniProt P50613)", "pKd": 10.52}

1: Clc1cnc(N[C@H]2CCCNC2)nc1-c1c[nH]c2ccccc12
2: CS(=O)(=O)c1cccc2c(-c3nc(N[C@H]4CCCNC4)ncc3C(F)(F)F)c[nH]c12
Query string: Two entries are listed, 1 and 2 . Which one carries the higher pKd? Write down the label of the entry you select.
Result string: 2
(2: 10.15, 1: 9.48)

====

assay: Lipophilicity, log D of compound; format: physicochemical; conditions: octanol/water
MEASUREMENT NAME: logD

{"COMPOUND STRUCTURE": "Cc1noc(C)c1-c1ccc2c(-c3nc(N[C@H]4CCCNC4)ncc3C(F)(F)F)c[nH]c2c1", "logD": 2.71}
{"COMPOUND STRUCTURE": "FC(F)(F)c1cnc(N[C@H]2CCCNC2)nc1-c1c[nH]c2ccccc12", "logD": 2.02}
{"COMPOUND STRUCTURE": "CC1(C)CC[C@H](Nc2ncc(C(F)(F)F)c(-c3c[nH]c4c(P(C)(C)=O)c(C#N)ccc34)n2)CN1", "logD": 2}
{"COMPOUND STRUCTURE": "CC1(C)CC[C@H](Nc2ncc(C(F)(F)F)c(-c3c[nH]c4ccccc34)n2)CN1", "logD": 2.48}

I: N#Cc1ccc2c(-c3nc(N[C@H]4CCCNC4)ncc3C(F)(F)F)c[nH]c2c1
II: CS(=O)(=O)c1cccc2c(-c3nc(N[C@H]4CCCNC4)ncc3C(F)(F)F)c[nH]c12
Query string: Hi there, can you help? I need to know whether I or II has lower measured logD. Write down the label of the entry you select.
Result string: II

====

assay: Apparent permeability across apical to basolateral side in MDCK cells; format: ADME, cell-based, Canis lupus familiaris; conditions: dog
MEASUREMENT NAME: Papp A→B (nm/s)

// solved cases for Papp A→B follow
{"COMPOUND STRUCTURE": "CS(=O)(=O)c1cccc2c(-c3nc(N[C@H]4CCCNC4)ncc3C(F)(F)F)c[nH]c12", "REPORTED": 32.8}
{"COMPOUND STRUCTURE": "N#Cc1ccc2c(-c3nc(N[C@H]4CCCNC4)ncc3C(F)(F)F)c[nH]c2c1", "REPORTED": 46.3}

A: Cc1noc(C)c1-c1ccc2c(-c3nc(N[C@H]4CCCNC4)ncc3C(F)(F)F)c[nH]c2n1.Cl
B: CCc1cnc(N[C@H]2CCCNC2)nc1-c1c[nH]c2ccccc12
C: CS(=O)(=O)c1c(C#N)ccc2c(-c3nc(N[C@H]4CCCNC4)ncc3C(F)(F)F)c[nH]c12
D: CP(C)(=O)c1cccc2c(-c3nc(N[C@H]4CCCNC4)ncc3C(F)(F)F)c[nH]c12
Query string: Exam item: list the entries in increasing order of Papp A→B. Labels, ranked as asked.
Result string: B, D, C, A
(B: 4.9 nm/s, D: 10.2 nm/s, C: 18.6 nm/s, A: 46.2 nm/s)
